Recorded measurements of ECHORC herbicidal effect rating, one per entry
- System: ECHORC (Watergrass (Calif.))
- procedure_text: Preemergence weed control under flooded paddy conditions
- Assay type: in vivo, Echinochloa oryzoides
- experimental_parameters: 0.2500 kg/ha, rated 3-4 weeks after treatment

Worked examples follow.
CN1C(=O)C(CC(N)=O)SC1=Nc1cc(-n2c(=O)cc(C(F)(F)F)n(C)c2=O)c(F)cc1Cl (stereo not drawn)
3.0
CCOC(=O)CN1C(=O)C(Cc2ccccc2OC(C)C(=O)O)S/C1=N/c1cc(-n2c(=O)cc(C(F)(F)F)n(C)c2=O)c(F)cc1Cl (stereo not drawn)
8.0

Item CCOC(=O)CN1C(=O)C(CC(=O)NS(=O)(=O)c2ccccc2)SC1=Nc1cc(-n2c(=O)cc(C(F)(F)F)n(C)c2=O)c(F)cc1Cl (stereo not drawn) has what recorded ECHORC herbicidal effect rating?
3.0

---

- Tested on: SETVI (Foxtail, Green)
- procedure_text: Postemergence herbicidal evaluation
- Assay type: in vivo, Setaria viridis
- experimental_parameters: postemergence, rate 0.0630 kg/ha
Recorded measurements of SETVI herbicidal rating, one per entry
// return just the number, without any unit appended

Worked examples follow.
C=CCN1C(=O)CSC1=Nc1cc(-n2c(=O)cc(C(F)(F)F)n(C)c2=O)c(F)cc1Cl
9.0
COC(=O)[C@H](Cc1ccccc1)N1C(=O)CS/C1=N/c1cc(-n2c(=O)cc(C(F)(F)F)n(C)c2=O)c(F)cc1Cl
2.0

Item COC(=O)C1(N2C(=O)CSC2=Nc2cc(-n3c(=O)cc(C(F)(F)F)n(C)c3=O)c(F)cc2Cl)CCCCC1 has what recorded SETVI herbicidal rating?
9.0

---

- Test system: ECHORC (Watergrass (Calif.))
- procedure_text: Preemergence weed control under flooded paddy conditions
- Format: in vivo, Echinochloa oryzoides
- experimental_parameters: 0.1250 kg/ha, rated 3-4 weeks after treatment
parameter: herbicidal effect rating, ECHORC

Item Cn1c(C(F)(F)F)cc(=O)n(-c2cc(N=C3SCC(=O)N3Cc3ccc(Cl)cc3)c(Cl)cc2F)c1=O has what recorded herbicidal effect rating, ECHORC?
7.0

Would you kindly repeat that for Cn1c(C(F)(F)F)cc(=O)n(-c2cc(N=C3SCC(=O)N3CC(=O)OCC3CC3)c(Cl)cc2F)c1=O ?
9.0

Would you kindly repeat that for Cn1c(C(F)(F)F)cc(=O)n(-c2cc(N=C3SCC(=O)N3C3CC3)c(Cl)cc2F)c1=O ?
0.0

---

- Tested on: CHEAL (Lambsquarters, Common)
- procedure_text: Preemergence herbicidal evaluation
- Type: in vivo, Chenopodium album
- experimental_parameters: preemergence, 0.0625 kg/ha, rated 4-5 weeks after treatment, 0-9 scale
parameter: CHEAL rating

Worked examples follow.
CCOC(=O)CN1C(=O)C(CC(=O)OCCF)SC1=Nc1cc(-n2c(=O)cc(C(F)(F)F)n(C)c2=O)c(F)cc1Cl (stereo not drawn)
9.0
C=CCN1C(=O)C(CC(=O)NOC)SC1=Nc1cc(-n2c(=O)cc(C(F)(F)F)n(C)c2=O)c(F)cc1Cl (stereo not drawn)
9.0
COC(=O)C1(N2C(=O)CSC2=Nc2cc(-n3c(=O)cc(C(F)(F)F)n(C)c3=O)c(F)cc2Cl)CCCCC1
9.0
C=CCOC(=O)CN1C(=O)CSC1=Nc1cc(-n2c(=O)cc(C(F)(F)F)n(C)c2=O)c(F)cc1Cl
9.0
CCOC(=O)CN1C(=O)C(CC(=O)NS(=O)(=O)CC)SC1=Nc1cc(-n2c(=O)cc(C(F)(F)F)n(C)c2=O)c(F)cc1Cl (stereo not drawn)
4.0

Okay, next one:
Item CN1C(=O)C(CC(N)=O)SC1=Nc1cc(-n2c(=O)cc(C(F)(F)F)n(C)c2=O)c(F)cc1Cl (stereo not drawn) has what recorded CHEAL rating?
9.0
